These data points were gathered from paper PMC10397247.

Task for the reader: assign each of the following binders its reported interaction score.
Target: T1, 4H454-bH
T1 chain: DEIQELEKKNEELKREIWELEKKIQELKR
Assay Explanation: two-hybrid library CCNG1;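 further: natural log of median RNA to DNA barcode read ratio; higher means stronger binding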
Answer with a number only.

Can you share its interaction score? I mean this binder: DKNQELKKENEELKREIWELEKKIQELKR [4H3782-bH]
1.75

Fill in: interaction score of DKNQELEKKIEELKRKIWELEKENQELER [4H3427-bH] is ___
-0.546

Entry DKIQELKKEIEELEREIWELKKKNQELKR [4H2576-bH] has what interaction score?
1.67

# query: interaction score of entry DKNQELEKEIEELKRKNWELEKEIQELER [4H3185-bH]
-1.16

I would be grateful if you could share the reported interaction score for DENQELKKKIEELERKIWELEKENQELKR [4H1828-bH] .
0.741

Return reported interaction score; argument: DENQELEKENEELKRKIWELKKEIQELER [4H1257-bH]
1.26
